# targetOrTestSystem: Integrin alpha-5/beta-1 (Homo sapiens, UniProt P05556+P08648)
# Sequence (P05556 21-798 limits assumed): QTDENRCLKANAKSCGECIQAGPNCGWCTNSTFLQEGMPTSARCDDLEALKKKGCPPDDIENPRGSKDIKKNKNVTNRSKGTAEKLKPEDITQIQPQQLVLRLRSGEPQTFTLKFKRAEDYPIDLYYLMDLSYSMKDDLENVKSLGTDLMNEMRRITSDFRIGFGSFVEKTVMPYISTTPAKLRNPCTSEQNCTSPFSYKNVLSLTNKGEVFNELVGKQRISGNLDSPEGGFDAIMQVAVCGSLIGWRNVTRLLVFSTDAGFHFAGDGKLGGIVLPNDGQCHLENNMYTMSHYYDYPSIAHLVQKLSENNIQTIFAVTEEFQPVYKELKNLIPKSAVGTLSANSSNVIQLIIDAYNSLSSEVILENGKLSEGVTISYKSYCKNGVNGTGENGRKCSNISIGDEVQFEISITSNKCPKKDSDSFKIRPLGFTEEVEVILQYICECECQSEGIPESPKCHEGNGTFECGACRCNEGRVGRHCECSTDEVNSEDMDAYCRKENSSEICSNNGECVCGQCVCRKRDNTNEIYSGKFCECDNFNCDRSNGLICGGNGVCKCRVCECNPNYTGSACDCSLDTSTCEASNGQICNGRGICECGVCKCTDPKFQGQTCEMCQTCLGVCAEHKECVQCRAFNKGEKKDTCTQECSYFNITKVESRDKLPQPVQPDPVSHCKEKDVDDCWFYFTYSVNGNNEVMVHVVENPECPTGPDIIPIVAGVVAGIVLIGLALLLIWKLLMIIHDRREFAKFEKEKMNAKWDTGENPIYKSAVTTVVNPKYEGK
# Sequence (P08648 42-894 limits assumed): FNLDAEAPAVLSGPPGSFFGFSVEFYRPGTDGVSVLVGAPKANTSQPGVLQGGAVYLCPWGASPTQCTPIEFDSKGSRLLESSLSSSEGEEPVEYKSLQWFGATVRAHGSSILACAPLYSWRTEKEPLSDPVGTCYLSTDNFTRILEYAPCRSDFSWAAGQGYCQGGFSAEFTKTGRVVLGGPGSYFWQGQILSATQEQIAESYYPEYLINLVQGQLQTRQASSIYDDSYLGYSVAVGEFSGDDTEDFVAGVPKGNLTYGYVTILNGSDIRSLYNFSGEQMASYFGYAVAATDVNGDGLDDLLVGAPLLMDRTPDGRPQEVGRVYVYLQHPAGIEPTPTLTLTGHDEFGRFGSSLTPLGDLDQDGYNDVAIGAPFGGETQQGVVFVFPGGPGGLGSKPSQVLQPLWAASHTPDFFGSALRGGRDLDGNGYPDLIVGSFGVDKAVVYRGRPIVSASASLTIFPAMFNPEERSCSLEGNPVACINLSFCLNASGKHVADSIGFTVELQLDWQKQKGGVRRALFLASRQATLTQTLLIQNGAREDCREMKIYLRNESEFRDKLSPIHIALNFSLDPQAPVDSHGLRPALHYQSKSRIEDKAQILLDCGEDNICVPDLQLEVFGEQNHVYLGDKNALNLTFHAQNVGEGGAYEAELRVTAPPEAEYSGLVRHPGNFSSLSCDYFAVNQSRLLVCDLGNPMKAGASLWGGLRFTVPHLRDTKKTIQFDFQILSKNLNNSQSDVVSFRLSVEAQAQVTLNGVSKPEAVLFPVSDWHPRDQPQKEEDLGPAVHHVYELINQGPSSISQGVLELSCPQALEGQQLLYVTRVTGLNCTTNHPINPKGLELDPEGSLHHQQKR
# Sequence (P08648 895-1049 limits assumed): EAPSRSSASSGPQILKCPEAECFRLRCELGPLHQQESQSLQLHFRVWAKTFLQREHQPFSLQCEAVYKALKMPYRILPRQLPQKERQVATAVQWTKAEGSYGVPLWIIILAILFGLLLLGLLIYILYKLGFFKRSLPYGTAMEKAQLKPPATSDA
# assay: Inhibition of human umbilical vein endothelial cell adhesion to fibronectin
pIC50: −log10 of the molar value. Peptide text beside a SMILES is read from it.
# key: entry, value: pIC50

# example entries with known answers
molecule	pIC50
CCCCS(=O)(=O)N[C@@H](Cc1ccc(OCCCCCCN)cc1)C(=O)O	< 3.30
NCCCCCCCOc1ccc(C[C@H](NC(=O)OCc2ccccc2)C(=O)O)cc1	< 3.35

Consider the additional molecule presented here.
Incoming: Form field: reported pIC50 of NC(N)=NCCC[C@H](N)C(=O)NCC(=O)N[C@@H](CC(=O)O)C(=O)N[C@@H](Cc1c[nH]c2ccccc12)C(=O)O (H-RGDW-OH)
Outgoing: 4.57

====

# targetOrTestSystem: Integrin alpha-V/beta-3 (Homo sapiens, UniProt P05106+P06756)
# Sequence (P06756 31-889 limits assumed, one chain of several): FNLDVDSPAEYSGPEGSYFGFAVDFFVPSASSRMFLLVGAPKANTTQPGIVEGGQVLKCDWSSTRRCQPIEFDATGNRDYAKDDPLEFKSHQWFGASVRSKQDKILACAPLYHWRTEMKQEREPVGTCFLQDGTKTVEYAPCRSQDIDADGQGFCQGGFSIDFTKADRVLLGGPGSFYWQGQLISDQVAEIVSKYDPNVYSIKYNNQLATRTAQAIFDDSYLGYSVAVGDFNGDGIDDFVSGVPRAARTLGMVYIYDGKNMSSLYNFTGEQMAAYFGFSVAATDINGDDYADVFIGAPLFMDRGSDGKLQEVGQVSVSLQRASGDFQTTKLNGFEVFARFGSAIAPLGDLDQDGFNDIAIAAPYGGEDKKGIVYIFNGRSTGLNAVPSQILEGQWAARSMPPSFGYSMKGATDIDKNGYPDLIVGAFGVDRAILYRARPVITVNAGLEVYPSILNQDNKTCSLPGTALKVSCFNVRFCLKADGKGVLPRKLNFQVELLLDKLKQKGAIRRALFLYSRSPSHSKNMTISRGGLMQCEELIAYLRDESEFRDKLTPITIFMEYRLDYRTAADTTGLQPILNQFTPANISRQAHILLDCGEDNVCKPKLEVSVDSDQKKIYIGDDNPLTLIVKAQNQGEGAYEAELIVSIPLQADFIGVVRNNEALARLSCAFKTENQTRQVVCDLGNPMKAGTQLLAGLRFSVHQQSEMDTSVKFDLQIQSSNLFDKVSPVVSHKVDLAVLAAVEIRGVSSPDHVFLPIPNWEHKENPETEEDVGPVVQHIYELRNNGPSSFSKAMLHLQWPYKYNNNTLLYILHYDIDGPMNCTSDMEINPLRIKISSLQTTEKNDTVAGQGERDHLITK
# Sequence (P06756 891-1048 limits assumed, one chain of several): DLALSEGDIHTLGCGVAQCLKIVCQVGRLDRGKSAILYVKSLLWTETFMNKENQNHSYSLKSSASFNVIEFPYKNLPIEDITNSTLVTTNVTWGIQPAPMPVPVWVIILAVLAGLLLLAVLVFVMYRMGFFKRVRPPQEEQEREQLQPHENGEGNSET
# assay: Inhibition of human umbilical vein endothelial cell adhesion to fibrinogen
# Format: functional, cell-based
pIC50: −log10 of the molar value. Peptide text beside a SMILES is read from it.
quantityMeasured: pIC50

compound	targetOrTestSystem	pIC50
NCCCCCCCOc1ccc(C[C@H](NC(=O)OCc2ccccc2)C(=O)O)cc1	Integrin alpha-V/beta-3 (Homo sapiens, UniProt P05106+P06756)	3.50

P. NC(N)=NCCC[C@H](N)C(=O)NCC(=O)N[C@@H](CC(=O)O)C(=O)N[C@@H](Cc1c[nH]c2ccccc12)C(=O)O (H-RGDW-OH)
Q. CCCCS(=O)(=O)N[C@@H](Cc1ccc(OCCCCCCN)cc1)C(=O)O
R. O=C(N[C@@H](Cc1ccc(OCCCCC2CCNCC2)cc1)C(=O)O)OCc1ccccc1
Incoming: Order the records, beginning with the lowest pIC50 and ending with the highest. Answer format: the labels, ordered as requested.
Outgoing: Q, R, P
(Q: 3.48, R: 3.80, P: 4.47)

====

# targetOrTestSystem: Integrin alpha-IIb/beta-3 (Homo sapiens, UniProt P05106+P08514)
# Sequence (P05106 27-788 limits assumed): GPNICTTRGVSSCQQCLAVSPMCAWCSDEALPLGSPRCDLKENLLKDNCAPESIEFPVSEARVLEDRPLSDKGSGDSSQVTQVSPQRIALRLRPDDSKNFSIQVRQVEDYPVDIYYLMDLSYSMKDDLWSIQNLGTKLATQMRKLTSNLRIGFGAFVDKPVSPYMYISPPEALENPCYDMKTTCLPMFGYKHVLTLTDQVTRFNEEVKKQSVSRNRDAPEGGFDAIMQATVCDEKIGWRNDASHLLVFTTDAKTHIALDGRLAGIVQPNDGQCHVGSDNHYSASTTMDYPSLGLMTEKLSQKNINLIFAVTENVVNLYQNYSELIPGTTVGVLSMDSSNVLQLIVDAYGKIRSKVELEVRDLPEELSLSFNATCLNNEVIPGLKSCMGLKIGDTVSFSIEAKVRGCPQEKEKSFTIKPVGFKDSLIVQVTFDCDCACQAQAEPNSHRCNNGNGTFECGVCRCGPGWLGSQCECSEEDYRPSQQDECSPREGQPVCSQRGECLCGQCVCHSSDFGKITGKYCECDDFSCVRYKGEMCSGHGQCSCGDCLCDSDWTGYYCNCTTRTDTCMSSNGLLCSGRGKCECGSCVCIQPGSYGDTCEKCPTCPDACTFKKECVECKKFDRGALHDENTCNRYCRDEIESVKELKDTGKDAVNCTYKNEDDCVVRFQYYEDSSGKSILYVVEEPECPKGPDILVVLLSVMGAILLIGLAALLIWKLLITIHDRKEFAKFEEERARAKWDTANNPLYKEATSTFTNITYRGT
# Sequence (P08514 32-887 limits assumed): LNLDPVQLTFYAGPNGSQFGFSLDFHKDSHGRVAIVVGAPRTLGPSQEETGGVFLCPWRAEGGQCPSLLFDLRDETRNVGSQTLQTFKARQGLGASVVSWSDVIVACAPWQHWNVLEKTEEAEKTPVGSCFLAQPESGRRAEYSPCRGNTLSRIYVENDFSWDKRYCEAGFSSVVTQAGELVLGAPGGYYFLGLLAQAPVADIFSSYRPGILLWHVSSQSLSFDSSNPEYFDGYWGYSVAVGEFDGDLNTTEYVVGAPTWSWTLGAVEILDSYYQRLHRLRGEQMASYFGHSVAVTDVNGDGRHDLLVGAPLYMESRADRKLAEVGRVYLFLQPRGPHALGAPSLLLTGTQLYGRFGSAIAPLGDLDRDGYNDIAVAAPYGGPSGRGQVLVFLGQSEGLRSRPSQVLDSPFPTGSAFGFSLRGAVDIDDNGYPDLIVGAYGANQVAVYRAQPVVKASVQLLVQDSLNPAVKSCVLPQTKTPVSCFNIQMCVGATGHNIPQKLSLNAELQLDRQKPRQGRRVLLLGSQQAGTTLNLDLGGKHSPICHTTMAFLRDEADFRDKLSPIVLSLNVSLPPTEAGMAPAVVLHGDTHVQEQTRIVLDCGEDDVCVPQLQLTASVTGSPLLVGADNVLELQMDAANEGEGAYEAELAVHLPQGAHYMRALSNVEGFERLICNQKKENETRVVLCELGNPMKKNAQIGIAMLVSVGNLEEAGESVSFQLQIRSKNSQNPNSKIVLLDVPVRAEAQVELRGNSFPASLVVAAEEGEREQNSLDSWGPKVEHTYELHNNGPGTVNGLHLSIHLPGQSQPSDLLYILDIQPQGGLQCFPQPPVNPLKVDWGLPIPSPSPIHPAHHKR
# Sequence (P08514 891-1039 limits assumed): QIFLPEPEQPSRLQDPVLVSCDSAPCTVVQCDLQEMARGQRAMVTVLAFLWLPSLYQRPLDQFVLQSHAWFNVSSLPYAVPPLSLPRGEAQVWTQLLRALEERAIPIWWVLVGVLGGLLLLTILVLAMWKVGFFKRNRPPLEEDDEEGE
# assay: Inhibition of platelet aggregation as the concentration necessary to inhibit the change in light.
pIC50: −log10 of the molar value.
quantityMeasured: pIC50

NCCCCCCOc1ccc(C[C@H](NC(=O)OCc2ccccc2)C(=O)O)cc1 4.59
O=C(O)[C@H](Cc1ccc(OCCCCC2CCNCC2)cc1)NS(=O)(=O)Cc1ccccc1 7.74
O=C(N[C@@H](Cc1ccc(OCCCCC2CCNCC2)cc1)C(=O)O)OCc1ccccc1 6.59

a. NCCCCCCOc1ccc(C[C@H](NC(=O)CCc2ccccc2)C(=O)O)cc1
b. CCCCS(=O)(=O)N[C@@H](Cc1ccc(OCCCCCCN)cc1)C(=O)O
Incoming: Sorting ascending by pIC50, which comes first: a or b ? # respond with the chosen item's label
Outgoing: a
